# assay procedure: Maximal plasma concentration in rat
# Type: ADME, organism-based
endpoint: Cmax (ng/mL)

> print(dat)
                                   compound  endpoint  recorded.value
1  CCCCN(CC)c1nc(C)nc2c1c(C)cn2-c1c(C)cc(C)cc1C      Cmax             367

---

# target desc: Corticotropin-releasing factor receptor 1 (Rattus norvegicus)
# Sequence (P35353 whole entry): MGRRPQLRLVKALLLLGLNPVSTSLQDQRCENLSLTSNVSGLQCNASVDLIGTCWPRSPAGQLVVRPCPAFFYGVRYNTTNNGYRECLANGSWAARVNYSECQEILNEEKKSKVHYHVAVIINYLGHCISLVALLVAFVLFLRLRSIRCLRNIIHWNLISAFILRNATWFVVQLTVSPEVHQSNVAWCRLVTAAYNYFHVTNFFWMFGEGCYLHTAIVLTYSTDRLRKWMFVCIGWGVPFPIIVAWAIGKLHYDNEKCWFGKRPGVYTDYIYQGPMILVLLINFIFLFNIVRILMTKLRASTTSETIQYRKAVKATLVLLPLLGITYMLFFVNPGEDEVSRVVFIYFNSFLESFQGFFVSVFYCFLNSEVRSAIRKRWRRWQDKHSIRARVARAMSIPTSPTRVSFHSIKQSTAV
# assay procedure: Inhibition of binding of 70 pM [125I]-Try0-o-Corticotropin-releasing Factor (CFR) to Corticotropin releasing hormone receptor 1 in Rat brain membrane
endpoint: IC50

> print(dat)
                                   compound  recorded.value
1  CCCCN(CC)c1nc(C)nc2c1c(C)cn2-c1c(C)cc(C)cc1C          5.5 nM

---

# target desc: Corticotropin-releasing factor receptor 2 (Rattus norvegicus)
# Sequence (P47866 whole entry): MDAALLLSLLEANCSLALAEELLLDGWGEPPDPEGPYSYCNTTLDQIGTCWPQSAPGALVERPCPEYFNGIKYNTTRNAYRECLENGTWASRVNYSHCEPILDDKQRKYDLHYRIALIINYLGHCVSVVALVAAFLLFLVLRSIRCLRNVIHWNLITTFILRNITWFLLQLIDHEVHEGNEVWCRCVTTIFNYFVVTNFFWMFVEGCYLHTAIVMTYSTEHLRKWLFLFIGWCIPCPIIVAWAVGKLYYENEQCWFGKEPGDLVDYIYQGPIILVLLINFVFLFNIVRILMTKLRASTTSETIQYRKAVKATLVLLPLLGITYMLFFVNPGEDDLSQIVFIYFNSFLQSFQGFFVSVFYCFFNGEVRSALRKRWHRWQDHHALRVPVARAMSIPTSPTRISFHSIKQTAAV
pKi: −log10 of the molar value.
endpoint: pKi

> print(dat)
                                   compound  endpoint  recorded.value
1  CCCCN(CC)c1nc(C)nc2c1c(C)cn2-c1c(C)cc(C)cc1C       pKi          < 5.00
